Target: Full-length PRMT5 enzyme co-expressed with MEP50 (Homo sapiens (Human), UniProt O14744)
Sequence (O14744 whole entry): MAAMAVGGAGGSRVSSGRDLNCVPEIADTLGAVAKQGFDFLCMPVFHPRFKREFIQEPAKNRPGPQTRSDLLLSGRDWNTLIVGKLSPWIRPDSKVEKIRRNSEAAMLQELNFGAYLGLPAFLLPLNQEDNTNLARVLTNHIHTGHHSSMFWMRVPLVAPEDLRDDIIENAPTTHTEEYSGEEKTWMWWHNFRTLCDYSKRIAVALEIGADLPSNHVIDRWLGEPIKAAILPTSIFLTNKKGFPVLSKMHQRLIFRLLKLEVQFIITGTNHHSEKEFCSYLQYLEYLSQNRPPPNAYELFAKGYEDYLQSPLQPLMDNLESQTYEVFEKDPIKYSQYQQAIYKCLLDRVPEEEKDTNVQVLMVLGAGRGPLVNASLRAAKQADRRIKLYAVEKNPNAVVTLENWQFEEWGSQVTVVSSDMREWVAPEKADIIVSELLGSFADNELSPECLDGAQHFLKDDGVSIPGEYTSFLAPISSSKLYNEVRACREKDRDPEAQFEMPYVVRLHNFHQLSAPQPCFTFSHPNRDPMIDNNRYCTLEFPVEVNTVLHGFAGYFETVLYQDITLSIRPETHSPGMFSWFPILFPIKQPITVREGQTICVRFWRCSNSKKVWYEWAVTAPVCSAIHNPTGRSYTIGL
Sequence (Q9BQA1 whole entry partner): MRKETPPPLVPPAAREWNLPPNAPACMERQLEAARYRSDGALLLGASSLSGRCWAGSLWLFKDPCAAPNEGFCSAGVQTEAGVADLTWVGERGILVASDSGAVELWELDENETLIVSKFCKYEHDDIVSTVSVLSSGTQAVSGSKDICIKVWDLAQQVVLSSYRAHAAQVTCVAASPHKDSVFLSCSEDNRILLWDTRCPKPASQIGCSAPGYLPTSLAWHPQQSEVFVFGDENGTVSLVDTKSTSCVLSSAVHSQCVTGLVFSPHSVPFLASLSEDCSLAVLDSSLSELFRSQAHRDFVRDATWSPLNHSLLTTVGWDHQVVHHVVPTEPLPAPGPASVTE
Assay: Revised PRMT5 Biochemical Assay
Settings: 1 μM peptide substrate, 1 μM S-Adenosyl methionine, 4 hours at 37 degree Celsius, Transcreener EPIGEN fluorescence polarisation
Protocol: Compounds of the invention may be tested for in vitro activity in the following assay: A histone H4 derived peptide is used as substrate (amino acid sequence: […]NH2). […] The 6 μL reactions are run in Greiner brand black 384-well low volume assay plates. […] To each reaction 2 μL detection mix were added, containing coupling enzymes, fluorescence polarisation tracer, and AMP antibody. […]
pIC50: −log10 of the molar value.
measurement name: pIC50

Worked cases, answers included:
- compound: "O=C(NCCC(O)CN1CCc2ccccc2C1)c1ccc(OC(F)(F)F)cc1 (stereo not drawn)"
  pIC50: 6.50
- compound: "O=C(NCCC(O)CN1CCc2ccccc2C1)c1cccc(-c2ccnnc2)c1 (stereo not drawn)"
  pIC50: 5.20
- compound: "O=C(NCCC(O)CN1CCc2ccccc2C1)c1ccc(C(=O)N2CCCC2)cc1 (stereo not drawn)"
  pIC50: 5.51

[a] Cn1cc(-c2cc(C(=O)NCCC(O)CN3CCc4ccccc4C3)no2)cn1 (stereo not drawn)
[b] O=C(NCCC(O)CN1CCc2ccccc2C1)c1nnc(-c2ccccc2)o1 (stereo not drawn)
Q: Pick one: a or b . Which one has the lower reported pIC50? Your choice should be expressed through its label.
A: b

[I] O=C(NCCC(O)CN1CCc2ccccc2C1)c1ccc(OC(F)F)cc1 (stereo not drawn)
[II] O=C(NCCC(O)CN1CCc2ccccc2C1)c1ccc(C(F)(F)F)cc1 (stereo not drawn)
[III] CC(=O)N1CCC(Nc2cc(C(=O)NCCC(O)CN3CCc4ccccc4C3)ccn2)CC1 (stereo not drawn)
[IV] N#Cc1cccc(C(=O)NCCC(O)CN2CCc3ccccc3C2)c1 (stereo not drawn)
Q: Place the items in sequence of falling pIC50. Your task in answering is to list the labels in the requested order.
A: III, I, II, IV
(III: 6.73, I: 6.38, II: 5.88, IV: 4.89)

---

Target: Full-length PRMT5 enzyme co-expressed with MEP50 (Homo sapiens (Human), UniProt O14744)
Assay: Revised PRMT5 Biochemical Assay
Conditions: 1 μM peptide substrate, 1 μM S-Adenosyl methionine, 4 hours at 37 degree Celsius, Transcreener EPIGEN fluorescence polarisation
measurement name: IC50 (µM)

Worked cases, answers included:
- compound: "COc1ccc(-n2cc(C(=O)NCCC(O)CN3CCc4ccccc4C3)cn2)cc1 (stereo not shown) [Compound 7]"
  assayed system: "Full-length PRMT5 enzyme co-expressed with MEP50 (Homo sapiens (Human), UniProt O14744)"
  measurement name: "IC50"
  readout unit: "µM"
  reported: 1.94
- compound: "O=C(NCCC(O)CN1CCc2ccccc2C1)c1ccc2c(c1)OC(F)(F)O2 (stereo not shown) [Compound 23]"
  assayed system: "Full-length PRMT5 enzyme co-expressed with MEP50 (Homo sapiens (Human), UniProt O14744)"
  measurement name: "IC50"
  readout unit: "µM"
  reported: 1.69
- compound: "C[S+]([O-])c1ccc(C(=O)NCCC(O)CN2CCc3ccccc3C2)cc1 (stereo not shown) [Compound 26]"
  assayed system: "Full-length PRMT5 enzyme co-expressed with MEP50 (Homo sapiens (Human), UniProt O14744)"
  measurement name: "IC50"
  readout unit: "µM"
  reported: 3.75
- compound: "O=C(NCCC(O)CN1CCc2ccccc2C1)c1cccc(Cl)c1 (stereo not shown) [Compound 18]"
  assayed system: "Full-length PRMT5 enzyme co-expressed with MEP50 (Homo sapiens (Human), UniProt O14744)"
  measurement name: "IC50"
  readout unit: "µM"
  reported: 9.79

[A] O=C(NCCC(O)CN1CCc2ccccc2C1)c1ccc(C(=O)N2CCC2)cc1 (stereo not shown) [Compound 31]
[B] O=C(NCCC(O)CN1CCc2ccccc2C1)c1noc(-c2ccccc2)n1 (stereo not shown) [Compound 34]
Q: Among A and B , which shows a numerically higher IC50 result? Your choice should be expressed through its label.
A: B
(B: 56.1 µM, A: 3.16 µM)

[A] O=C(NCCC(O)CN1CCc2ccccc2C1)c1ccn(Cc2ccccc2)c(=O)c1 (stereo not shown) [Compound 12]
[B] CS(=O)(=O)c1ccc(C(=O)NCCC(O)CN2CCc3ccccc3C2)cc1 (stereo not shown) [Compound 22]
Q: Among A and B , which shows a numerically higher IC50 result? Your choice should be expressed through its label.
A: B
(B: 7.02 µM, A: 1.59 µM)

[a] Cc1nn(C)cc1-c1cc(C(=O)NCCC(O)CN2CCc3ccccc3C2)no1 (stereo not shown) [Compound 36]
[b] COc1ccc(C(=O)NCCC(O)CN2CCc3ccccc3C2)cc1-c1cncnc1 (stereo not shown) [Compound 27]
Q: Among a and b , which shows a numerically higher IC50 result? Your choice should be expressed through its label.
A: b
(b: 5.62 µM, a: 1.2 µM)
